Tested on: Escherichia coli TOP10;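 note: peptides expressed intracellularly from a pBAD plasmid library in pooled LB shake-flask culture, induced with 0.3% L-arabinose, DNA abundance read by NGS, three biological replicates, DESeq2 with apeglm shrinkage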
Assay: shrunken log2 fold change of peptide-encoding DNA abundance (4.5 h post-induction vs induction); higher = less antimicrobial activity (less host growth inhibition)
Conditions: time post-induction: 4.5 h; library: site-saturation at positions 5, 18, 19, 20
# cutoff -0.2 applies to shrunken log2 fold change; >= gives yes, < gives no

Given the entry RRIRCRPPRLPRPRPRPSCAPRP , answer whether its shrunken log2 fold change meets or surpasses -0.2.
yes

Given the entry RRIRRRPPRLPRPRPRPSQWPRP , answer whether its shrunken log2 fold change meets or surpasses -0.2.
yes

Given the entry RRIRERPPRLPRPRPRPRAGPRP , answer whether its shrunken log2 fold change meets or surpasses -0.2.
yes

Given the entry RRIRERPPRLPRPRPRPMNFPRP , answer whether its shrunken log2 fold change meets or surpasses -0.2.
yes

Given the entry RRIRCRPPRLPRPRPRPQCTPRP , answer whether its shrunken log2 fold change meets or surpasses -0.2.
no

Given the entry RRIRTRPPRLPRPRPRPGFKPRP , answer whether its shrunken log2 fold change meets or surpasses -0.2.
yes

Given the entry RRIRCRPPRLPRPRPRPCAKPRP , answer whether its shrunken log2 fold change meets or surpasses -0.2.
yes

Given the entry RRIRIRPPRLPRPRPRPHAAPRP , answer whether its shrunken log2 fold change meets or surpasses -0.2.
no

Given the entry RRIRMRPPRLPRPRPRPWPAPRP , answer whether its shrunken log2 fold change meets or surpasses -0.2.
yes

Given the entry RRIRLRPPRLPRPRPRPHINPRP , answer whether its shrunken log2 fold change meets or surpasses -0.2.
no

Given the entry RRIRCRPPRLPRPRPRPDDSPRP , answer whether its shrunken log2 fold change meets or surpasses -0.2.
yes

Given the entry RRIRQRPPRLPRPRPRPAAGPRP , answer whether its shrunken log2 fold change meets or surpasses -0.2.
yes

Given the entry RRIRPRPPRLPRPRPRPHLRPRP , answer whether its shrunken log2 fold change meets or surpasses -0.2.
yes

Given the entry RRIRDRPPRLPRPRPRPLAGPRP , answer whether its shrunken log2 fold change meets or surpasses -0.2.
yes

Given the entry RRIRWRPPRLPRPRPRPPIVPRP , answer whether its shrunken log2 fold change meets or surpasses -0.2.
yes

Given the entry RRIRLRPPRLPRPRPRPNEGPRP , answer whether its shrunken log2 fold change meets or surpasses -0.2.
yes

Given the entry RRIRWRPPRLPRPRPRPTNTPRP , answer whether its shrunken log2 fold change meets or surpasses -0.2.
no

Given the entry RRIRARPPRLPRPRPRPVGSPRP , answer whether its shrunken log2 fold change meets or surpasses -0.2.
yes

Given the entry RRIRSRPPRLPRPRPRPCMPPRP , answer whether its shrunken log2 fold change meets or surpasses -0.2.
no

Given the entry RRIRTRPPRLPRPRPRPVYMPRP , answer whether its shrunken log2 fold change meets or surpasses -0.2.
no

Given the entry RRIRSRPPRLPRPRPRPINCPRP , answer whether its shrunken log2 fold change meets or surpasses -0.2.
yes

Given the entry RRIRRRPPRLPRPRPRPDFRPRP , answer whether its shrunken log2 fold change meets or surpasses -0.2.
yes

Given the entry RRIRRRPPRLPRPRPRPMNRPRP , answer whether its shrunken log2 fold change meets or surpasses -0.2.
no

Given the entry RRIRNRPPRLPRPRPRPMRWPRP , answer whether its shrunken log2 fold change meets or surpasses -0.2.
yes

Given the entry RRIRARPPRLPRPRPRPSDTPRP , answer whether its shrunken log2 fold change meets or surpasses -0.2.
no

Given the entry RRIRERPPRLPRPRPRPYHKPRP , answer whether its shrunken log2 fold change meets or surpasses -0.2.
no

Given the entry RRIRRRPPRLPRPRPRPWNWPRP , answer whether its shrunken log2 fold change meets or surpasses -0.2.
yes

Given the entry RRIRIRPPRLPRPRPRPCINPRP , answer whether its shrunken log2 fold change meets or surpasses -0.2.
no

Given the entry RRIRLRPPRLPRPRPRPVAMPRP , answer whether its shrunken log2 fold change meets or surpasses -0.2.
yes

Given the entry RRIRHRPPRLPRPRPRPFNFPRP , answer whether its shrunken log2 fold change meets or surpasses -0.2.
no

Given the entry RRIRHRPPRLPRPRPRPLFQPRP , answer whether its shrunken log2 fold change meets or surpasses -0.2.
yes

Given the entry RRIRLRPPRLPRPRPRPCCWPRP , answer whether its shrunken log2 fold change meets or surpasses -0.2.
yes

Given the entry RRIRSRPPRLPRPRPRPVPFPRP , answer whether its shrunken log2 fold change meets or surpasses -0.2.
no

Given the entry RRIRSRPPRLPRPRPRPEEDPRP , answer whether its shrunken log2 fold change meets or surpasses -0.2.
yes

Given the entry RRIRKRPPRLPRPRPRPKMRPRP , answer whether its shrunken log2 fold change meets or surpasses -0.2.
yes

Given the entry RRIRMRPPRLPRPRPRPVLLPRP , answer whether its shrunken log2 fold change meets or surpasses -0.2.
yes

Given the entry RRIRGRPPRLPRPRPRPLPEPRP , answer whether its shrunken log2 fold change meets or surpasses -0.2.
yes

Given the entry RRIRARPPRLPRPRPRPYFPPRP , answer whether its shrunken log2 fold change meets or surpasses -0.2.
no

Given the entry RRIRARPPRLPRPRPRPIFMPRP , answer whether its shrunken log2 fold change meets or surpasses -0.2.
yes

Given the entry RRIRTRPPRLPRPRPRPGTMPRP , answer whether its shrunken log2 fold change meets or surpasses -0.2.
no

Given the entry RRIRIRPPRLPRPRPRPPFRPRP , answer whether its shrunken log2 fold change meets or surpasses -0.2.
yes

Given the entry RRIRCRPPRLPRPRPRPGTSPRP , answer whether its shrunken log2 fold change meets or surpasses -0.2.
yes

Given the entry RRIRFRPPRLPRPRPRPYHRPRP , answer whether its shrunken log2 fold change meets or surpasses -0.2.
yes

Given the entry RRIRLRPPRLPRPRPRPHPHPRP , answer whether its shrunken log2 fold change meets or surpasses -0.2.
yes

Given the entry RRIRIRPPRLPRPRPRPWQVPRP , answer whether its shrunken log2 fold change meets or surpasses -0.2.
yes

Given the entry RRIRNRPPRLPRPRPRPFCWPRP , answer whether its shrunken log2 fold change meets or surpasses -0.2.
yes

Given the entry RRIRTRPPRLPRPRPRPQTIPRP , answer whether its shrunken log2 fold change meets or surpasses -0.2.
no

Given the entry RRIRIRPPRLPRPRPRPQLFPRP , answer whether its shrunken log2 fold change meets or surpasses -0.2.
yes

Given the entry RRIRCRPPRLPRPRPRPAQEPRP , answer whether its shrunken log2 fold change meets or surpasses -0.2.
yes

Given the entry RRIRDRPPRLPRPRPRPPEVPRP , answer whether its shrunken log2 fold change meets or surpasses -0.2.
yes

Given the entry RRIRPRPPRLPRPRPRPDLSPRP , answer whether its shrunken log2 fold change meets or surpasses -0.2.
yes

Given the entry RRIRKRPPRLPRPRPRPMMIPRP , answer whether its shrunken log2 fold change meets or surpasses -0.2.
yes

Given the entry RRIRVRPPRLPRPRPRPHNSPRP , answer whether its shrunken log2 fold change meets or surpasses -0.2.
no

Given the entry RRIRERPPRLPRPRPRPCPEPRP , answer whether its shrunken log2 fold change meets or surpasses -0.2.
no

Given the entry RRIRDRPPRLPRPRPRPFTNPRP , answer whether its shrunken log2 fold change meets or surpasses -0.2.
yes

Given the entry RRIRSRPPRLPRPRPRPTDPPRP , answer whether its shrunken log2 fold change meets or surpasses -0.2.
yes

Given the entry RRIRWRPPRLPRPRPRPFRLPRP , answer whether its shrunken log2 fold change meets or surpasses -0.2.
no

Given the entry RRIRKRPPRLPRPRPRPYDRPRP , answer whether its shrunken log2 fold change meets or surpasses -0.2.
yes

Given the entry RRIRIRPPRLPRPRPRPPPFPRP , answer whether its shrunken log2 fold change meets or surpasses -0.2.
yes

Given the entry RRIRKRPPRLPRPRPRPCHEPRP , answer whether its shrunken log2 fold change meets or surpasses -0.2.
yes

Given the entry RRIRTRPPRLPRPRPRPCLRPRP , answer whether its shrunken log2 fold change meets or surpasses -0.2.
yes

Given the entry RRIRRRPPRLPRPRPRPHPMPRP , answer whether its shrunken log2 fold change meets or surpasses -0.2.
yes

Given the entry RRIRGRPPRLPRPRPRPWSRPRP , answer whether its shrunken log2 fold change meets or surpasses -0.2.
yes
